Each recorded value in this set is attributed to patent EP0437382A1.

# RUN_DESCRIPTION: Cytotoxicity on non-infected CEM cells (MTT viability)
# Assay type: cell-based, humaines
# APPLIED_CONDITIONS: human; non-infected CEM cells, 7 days; read-out: CC50 (concentration qui inhibe de 50 % la croissance des cellules non infectées)
PROPERTY: CC50 at 168 h (µg/mL)

>>> recorded_value("Cc1cn([C@H]2C[C@H](N=[N+]=[N-])[C@@H](CO)O2)c(=O)n(N)c1=O")
10
